Let's look at some compounds and their measured IC50.
target: human FXa (Homo sapiens); construct: purchased Cosmobio-ERL HFXa-1011; test: Measurement of FXa inhibitory action (IC50); assay type: biochemical; conditions: same test as Tables 1-6; read-out: FXa 50% inhibitory concentrations
Where a name gives a salt, the structure may show the parent alone.
The reply should contain only the number, in nM.

{"Compound": "CN1CCc2nc(C(=O)N3CCN(S(=O)(=O)c4ccc5cc(Cl)ccc5c4)CC3CC(=O)N3CCOCC3)sc2C1 (stereo not shown) [Example B-63, hydrochloride]", "Output Unit": "nM", "IC50": 12.5}
{"Compound": "C[n+]1ccc2nc(C(=O)N3CCN(S(=O)(=O)c4ccc5cc(Cl)ccc5c4)CC3)sc2c1 [Example B-61]", "Output Unit": "nM", "IC50": 30}
{"Compound": "CN1CCc2nc(C(=O)N3CCN(S(=O)(=O)c4cc5cc(Cl)ccc5[nH]4)CC3)sc2C1 [Example B-54, hydrochloride]", "Output Unit": "nM", "IC50": 5}

Please examine the following record next.
Return reported IC50; argument: CN1CCc2nc(C(=O)N3CCN(S(=O)(=O)c4cc5cc(Cl)ccc5[nH]4)CC3CC(=O)N3CCOCC3)sc2C1 (stereo not shown) [Example B-99, hydrochloride]
1.7

====

Below, each entry is listed alongside its reported log10 IC50.
molecular target: human FXa (Homo sapiens, UniProt P00742); construct: purchased Cosmobio-ERL HFXa-1011; experiment: Measurement of FXa inhibitory action (IC50); type: biochemical; conditions: 0.05 U/ml human FXa, substrate S2222, absorbance at 405 nm, room temperature; read-out: Concentration (nM) of the sample at which 50% of Fxa activity is inhibited
Sequence (P00742 235-488 limits assumed): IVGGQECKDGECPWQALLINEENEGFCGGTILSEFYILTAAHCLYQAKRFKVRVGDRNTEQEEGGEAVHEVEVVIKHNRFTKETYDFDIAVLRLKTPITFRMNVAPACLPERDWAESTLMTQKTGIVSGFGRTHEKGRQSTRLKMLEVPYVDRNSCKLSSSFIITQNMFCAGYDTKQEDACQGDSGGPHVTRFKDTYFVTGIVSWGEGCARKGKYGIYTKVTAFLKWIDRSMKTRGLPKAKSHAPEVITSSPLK
Sequence (P00742 41-179 partner limits assumed): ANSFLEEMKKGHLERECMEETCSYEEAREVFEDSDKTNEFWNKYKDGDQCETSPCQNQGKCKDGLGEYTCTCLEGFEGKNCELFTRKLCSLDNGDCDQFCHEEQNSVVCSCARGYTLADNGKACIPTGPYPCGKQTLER
Counter-ions that a name gives are not always drawn.
Form field - Quantity: IC50; Unit: nM; Scale: log10

Examples with answers:
{"Compound": "O=C(CC1CN(S(=O)(=O)c2cc3cc(Cl)ccc3[nH]2)CCN1C(=O)C1CC=C(c2cc[n+]([O-])cc2)CC1)N1CCCCC1 (stereo not shown) [Example A-259]", "Numeric Value": 0.54}
{"Compound": "O=C(c1ncc(-c2cc[n+]([O-])cc2)s1)N1CCN(S(=O)(=O)c2cc3ccc(Cl)cc3s2)CC1 [Example A-239]", "Numeric Value": 0.54}
{"Compound": "CN(C)C(=O)C[C@@H]1CN(S(=O)(=O)c2cc3ccc(Cl)cc3s2)C[C@H](CC(=O)N(C)C)N1C(=O)c1ncc(-c2cc[n+]([O-])cc2)cn1 [Example A-279]", "Numeric Value": 1.00}
{"Compound": "Cc1cc(-c2cnc(C(=O)N3CCN(S(=O)(=O)c4cc5cc(Cl)ccc5[nH]4)CC3)nc2)ccn1 [Example A-186]", "Numeric Value": 0.28}
{"Compound": "C#Cc1ccc2[nH]c(S(=O)(=O)N3CCN(C(=O)c4ncc(-c5cc[n+]([O-])cc5)s4)CC3)cc2c1 [Example A-231]", "Numeric Value": 0.36}
{"Compound": "O=C(c1ccc(-c2ccccn2)cc1)N1CCN(S(=O)(=O)c2cc3cc(Cl)ccc3[nH]2)CC1 [Example A-90, hydrochloride]", "Numeric Value": 1.20}

Endpoint output: log10 IC50 of C#Cc1ccc2[nH]c(S(=O)(=O)N3CCN(C(=O)c4ccc(-c5cc[n+]([O-])cc5)cc4)CC3)cc2c1 [Example A-120] . Value?
1.15

Which log10 IC50 is reported for this compound? O=C(c1ccc(-c2ccncc2)cc1)N1CCN(S(=O)(=O)c2cc3ccc(Cl)cc3s2)CC1 [Example A-97, hydrochloride]
1.91

Field request: log10 IC50 | item: O=C(c1ncc(-c2cc[n+]([O-])cc2)cn1)N1CCN(S(=O)(=O)c2cc3ccc(Cl)cc3s2)CC1 [Example A-133]
1.00
